measurement-target: T1, human ANGPTL3 (human, UniProt Q9Y5C1 17-460)
T1 construct: Biotinylated in the ELISA assays; also called hANGPTL3; free ANGPTL3
T1 sequence: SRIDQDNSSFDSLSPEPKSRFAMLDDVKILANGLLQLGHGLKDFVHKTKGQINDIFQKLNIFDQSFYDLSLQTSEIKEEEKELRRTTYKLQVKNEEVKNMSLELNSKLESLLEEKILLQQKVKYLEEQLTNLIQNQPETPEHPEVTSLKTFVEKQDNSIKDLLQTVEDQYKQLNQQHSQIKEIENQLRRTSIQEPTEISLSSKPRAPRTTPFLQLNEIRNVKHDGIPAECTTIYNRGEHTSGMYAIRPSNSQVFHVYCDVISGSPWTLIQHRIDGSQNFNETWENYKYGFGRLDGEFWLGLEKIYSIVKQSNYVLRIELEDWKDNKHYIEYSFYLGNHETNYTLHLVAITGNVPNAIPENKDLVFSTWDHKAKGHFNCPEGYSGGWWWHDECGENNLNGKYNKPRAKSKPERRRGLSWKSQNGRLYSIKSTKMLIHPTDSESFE
run-description: ELISA; Ab captured by anti-human Fc; biotinylated antigen at 0.137 nM
Consider the following binders and their measured OD at 560 nm readings.

{"binder": "Ab with LC variant having a D31S mutation (SEQ ID NO:21) and a HC of SEQ ID NO:6 (antibody, human IgG4 S228P, kappa, F234A L235A, V domains shown, also called D31S Variant Ab; D31S Ab) VH: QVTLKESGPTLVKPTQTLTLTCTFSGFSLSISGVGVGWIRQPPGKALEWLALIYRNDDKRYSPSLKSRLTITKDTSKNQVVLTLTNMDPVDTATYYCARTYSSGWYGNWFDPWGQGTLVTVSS VL: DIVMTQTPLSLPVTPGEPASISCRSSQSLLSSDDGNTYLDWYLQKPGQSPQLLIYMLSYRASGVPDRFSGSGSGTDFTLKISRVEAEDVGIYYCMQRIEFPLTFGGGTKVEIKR", "OD at 560 nm": "0.057 OD 560 nm"}
{"binder": "Ab with LC variant having a E99Q mutation (SEQ ID NO:25) and a HC of SEQ ID NO:6 (antibody, human IgG4 S228P, kappa, F234A L235A, V domains shown, also called E99Q Variant Ab; E99Q Ab) VH: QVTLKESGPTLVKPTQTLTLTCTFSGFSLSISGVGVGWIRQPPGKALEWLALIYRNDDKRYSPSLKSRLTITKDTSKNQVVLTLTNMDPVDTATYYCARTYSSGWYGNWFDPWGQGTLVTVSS VL: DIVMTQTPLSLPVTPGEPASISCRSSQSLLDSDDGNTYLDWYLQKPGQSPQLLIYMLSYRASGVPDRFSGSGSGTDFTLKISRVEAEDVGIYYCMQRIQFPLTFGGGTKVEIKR", "OD at 560 nm": "0.057 OD 560 nm"}
{"binder": "Ab with LC variant having a D33A mutation (SEQ ID NO:22) and a HC of SEQ ID NO:6 (antibody, human IgG4 S228P, kappa, F234A L235A, V domains shown, also called D33A Variant Ab; D33A Ab) VH: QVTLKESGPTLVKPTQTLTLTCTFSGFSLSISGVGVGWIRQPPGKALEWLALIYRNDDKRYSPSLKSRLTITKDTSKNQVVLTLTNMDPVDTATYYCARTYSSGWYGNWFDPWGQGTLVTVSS VL: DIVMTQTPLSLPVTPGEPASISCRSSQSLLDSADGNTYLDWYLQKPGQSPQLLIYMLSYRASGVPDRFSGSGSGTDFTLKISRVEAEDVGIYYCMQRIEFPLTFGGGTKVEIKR", "OD at 560 nm": "0.062 OD 560 nm"}
{"binder": "anti-ANGPTL3/8 complex Ab having a LC of SEQ ID NO:5 and a HC of SEQ ID NO:6 (antibody, human IgG4 S228P, kappa, F234A L235A, V domains shown, In the ELISA assays tested as IgG from CHO supernatants; also called the Ab) VH: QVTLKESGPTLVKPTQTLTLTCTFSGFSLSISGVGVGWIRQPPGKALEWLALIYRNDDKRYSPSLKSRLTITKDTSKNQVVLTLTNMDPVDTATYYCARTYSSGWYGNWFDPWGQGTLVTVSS VL: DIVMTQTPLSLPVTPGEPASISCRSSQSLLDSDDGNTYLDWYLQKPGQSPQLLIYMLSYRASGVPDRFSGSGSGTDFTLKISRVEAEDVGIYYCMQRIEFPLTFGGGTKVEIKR", "OD at 560 nm": "0.048 OD 560 nm"}
